target: BRD4 BD2 (Homo sapiens (Human)); assay: NanoBRET bromodomain assay, NanoLuc-BRD4-BD2 fusion in HEK293 cells; conditions: IC50 for BRD4 BD1 divided by IC50 for BRD4 BD2; qualitative if an IC50 is at the upper limit;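 also: tracer displacement BRET read in transfected cells after 2 h compound exposure at 37 °C, signal in milliBRET units corrected against no-tracer background wells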
readout.kind: Fold selectivity

compound="CCNC(=O)c1cc(OC(C)c2ccc(F)cc2F)c(C(=O)NC)[nH]1 (racemic)" result="X (Fold >2 and ≤50)"
compound=CNC(=O)c1[nH]c(C(=O)N[C@@H]2CCC(F)(F)C2)cc1O[C@@H](C)c1ccccc1 result="X (Fold >2 and ≤50)"
compound="CCNC(=O)c1cc(OC(C)c2cccc(F)c2)c(C(=O)NC)[nH]1 (racemic)" result="X (Fold >2 and ≤50)"
compound=CNC(=O)c1[nH]c(C(=O)N[C@H]2CCOC2)cc1O[C@@H](C)c1ccccc1 result="X (Fold >2 and ≤50)"
compound="CCNC(=O)c1cc(OC(C)c2ccc(F)cc2)c(C(=O)NC)[nH]1 (racemic)" result="XX (Fold >50 and ≤200)"
compound=CNC(=O)c1[nH]c(-c2cnn(C)c2)cc1O[C@@H](C)c1ccccc1 result="XX (Fold >50 and ≤200)"
compound="CCNC(=O)c1cc(OC(CC)c2ccccc2)c(C(=O)NC)[nH]1 (racemic)" result="X (Fold >2 and ≤50)"

----------
test: Pharmacokinetics and plasma concentration of Example 101 in Lewis rats after oral administration (CIA study); format: in vivo, Lewis rat; settings: Lewis, rat, plasma, oral, 10 mg/kg, plasma, oral, day 20, 10 mg/kg, 2 h; read-out: Mean Concentration
readout.kind: concentration at 2 h (ng/mL)

compound="CNC(=O)c1[nH]c(C(=O)NC2CCC2)cc1O[C@@H](C)c1ccccc1 (stereo in doubt)" result=1140

----------
assay: Pharmacokinetics and plasma concentration of Example 101 in Lewis rats after oral administration (CIA study); format: in vivo, Lewis rat; details: Lewis, rat, plasma, po, 10 mg/kg, Lewis rats, oral, 10 mg/kg, day 20, mean
readout.kind: half-life

molecule="CNC(=O)c1[nH]c(C(=O)NC2CCC2)cc1O[C@@H](C)c1ccccc1 (stereo in doubt) [Example 101]" result="3.28 h"

----------
experiment: Beagle dog PK study 1 of Example 101 (propylene glycol-based formulation, IV and PO), with clinical observations; assay type: in vivo; conditions: beagle, dog, plasma, po, 5 mg/kg, dog PK study 1, oral, Test Animal 3
readout.kind: Tmax (h)

compound="CNC(=O)c1[nH]c(C(=O)NC2CCC2)cc1O[C@@H](C)c1ccccc1 (stereo in doubt) [Example 101]" result=1

----------
assay: Pharmacokinetics and plasma concentration of Example 101 in Lewis rats after oral administration (CIA study); type: in vivo, Lewis rat; conditions: Lewis, rat, plasma, po, 10 mg/kg, oral, day 20, 10 mg/kg, per test subject
readout.kind: half-life (h)

compound="CNC(=O)c1[nH]c(C(=O)NC2CCC2)cc1O[C@@H](C)c1ccccc1 (stereo in doubt)" units_text=h result=3.46

----------
assay: Pharmacokinetics and plasma concentration of Example 101 in Lewis rats after oral administration (CIA study); type: in vivo, Lewis rat; details: Lewis, rat, plasma, oral, 10 mg/kg, oral, day 0, 10 mg/kg, 1 h, per test subject; read-out: Plasma concentration
readout.kind: concentration at 1 h

compound="CNC(=O)c1[nH]c(C(=O)NC2CCC2)cc1O[C@@H](C)c1ccccc1 (stereo in doubt)" readout_kind="concentration at 1 h" result="1090 ng/mL"

----------
test: Beagle dog PK study 1 of Example 101 (propylene glycol-based formulation, IV and PO), with clinical observations; assay type: in vivo; conditions: beagle, dog, plasma, iv, 1 mg/kg, dog PK study 1, IV, 1 h, Test Animal 3; read-out: Plasma concentration
readout.kind: concentration at 1 h (ng/mL)

compound="CNC(=O)c1[nH]c(C(=O)NC2CCC2)cc1O[C@@H](C)c1ccccc1 (stereo in doubt) [Example 101]" readout_kind="concentration at 1 h" result=520

----------
assay: Beagle dog PK study 1 of Example 101 (propylene glycol-based formulation, IV and PO), with clinical observations; format: in vivo; settings: beagle, dog, plasma, iv, 1 mg/kg, dog PK study 1, intravenous, mean
readout.kind: AUC(0-t) (ng·h/mL)

compound="CNC(=O)c1[nH]c(C(=O)NC2CCC2)cc1O[C@@H](C)c1ccccc1 (stereo in doubt) [Example 101]" units_text=ng·h/mL result=1880

----------
assay: Pharmacokinetics and plasma concentration of Example 101 in Lewis rats after oral administration (CIA study); format: in vivo, Lewis rat; conditions: Lewis, rat, plasma, oral, 10 mg/kg, plasma, oral, day 20, 10 mg/kg, 4 h; read-out: Mean Concentration
readout.kind: concentration at 4 h (ng/mL)

compound="CNC(=O)c1[nH]c(C(=O)NC2CCC2)cc1O[C@@H](C)c1ccccc1 (stereo in doubt) [Example 101]" units_text=ng/mL result=494

----------
assay: Beagle dog PK study 2 of Example 101 (HPβCD based formulation, IV), with clinical observations; assay type: in vivo; details: beagle, dog, plasma, iv, 1 mg/kg, dog PK study 2, IV 1 mg/kg, HPβCD, 8 h, Test Animal 1; read-out: Plasma concentration
readout.kind: concentration at 8 h (ng/mL)

compound="CNC(=O)c1[nH]c(C(=O)NC2CCC2)cc1O[C@@H](C)c1ccccc1 (stereo in doubt)" units_text=ng/mL result=0

----------
Experiment: Sprague-Dawley rat pharmacokinetics, IV and PO cassette dosing
Type: in vivo
Conditions: PO 5 mg/kg, Method 1
Procedure: Compounds were formulated in 5% DMSO, 40% PEG-400, 55% Milli-Q water at a concentration of 0.2 mg/mL for IV and at 0.5 mg/mL for PO. Two male Sprague-Dawley rats per arm were dosed with up to 5 compounds in cassette mode, which each compound being dosed at 1 mg/kg IV and 5 mg/kg PO. […] 20 μL of diluted supernatant was injected into the LC/MS/MS system for quantitative analysis and concentration of analyte determined by comparison with matrix matched standard curve. […]
readout.kind: PO F (%)

molecule="CNC(=O)c1[nH]c(C(=O)NC2COC2)cc1OC(C)c1ccc(Cl)cc1F (single isomer, unassigned) [Example 39]" units_text=% result=11
molecule="CNC(=O)c1[nH]c(C(=O)NC2CCC2)cc1OC(C)c1ccc(Cl)cc1F (single isomer, unassigned) [Example 35]" units_text=% result=65
molecule="CCNC(=O)c1cc(OC(C)c2ccc(Cl)cc2F)c(C(=O)NC)[nH]1 (single isomer, unassigned) [Example 41]" units_text=% result=69
molecule="CNC(=O)c1[nH]c(C(=O)N[C@H]2CC[C@H](O)CC2)cc1OC(C)c1ccc(Cl)cc1F (single isomer, unassigned) [Example 38]" units_text=% result=66
molecule="CNC(=O)c1[nH]c(C(=O)NC2CC2)cc1O[C@@H](C)c1ccc(Cl)cc1 [Example 62]" units_text=% result=8
molecule="CNC(=O)c1[nH]c(C(=O)NC2CCC2)cc1O[C@@H](C)c1ccccc1 (stereo in doubt) [Example 101]" units_text=% result=66
molecule="CNC(=O)c1[nH]c(C(=O)NC2COC2)cc1OC(C)c1ccc(Cl)cc1 (single isomer, unassigned) [Example 31]" units_text=% result=15
molecule="CNC(=O)c1[nH]c(C(=O)NC2CCC2)cc1OC(C)c1ccccc1F (single isomer, unassigned) [Example 43]" units_text=% result=58
molecule="CCNC(=O)c1cc(OC(C)c2ccc(Cl)cc2)c(C(=O)NC)[nH]1 (single isomer, unassigned) [Example 18]" units_text=% result=30
molecule="CCNC(=O)c1cc(OC(C)c2ccccc2F)c(C(=O)NC)[nH]1 (single isomer, unassigned) [Example 20]" units_text=% result=46
molecule="C#Cc1ccc(C(C)Oc2cc(C(=O)NCC)[nH]c2C(=O)NC)cc1 (single isomer, unassigned) [Example 70]" units_text=% result=44
molecule="CNC(=O)c1[nH]c(C(=O)N[C@H]2CC[C@H](O)CC2)cc1OC(C)c1ccccc1 (single isomer, unassigned) [Example 97]" units_text=% result=60
molecule="CNC(=O)c1[nH]c(C(=O)NC2CC2)cc1O[C@@H](C)c1ccccc1F [Example 59]" units_text=% result=70
molecule="CNC(=O)c1[nH]c(C(=O)N[C@H]2CC[C@H](O)CC2)cc1OC(C)c1ccccc1 (single isomer, unassigned) [Example 98]" units_text=% result=31
molecule="CNC(=O)c1[nH]c(C(=O)NC2CCC2)cc1OC(C)c1ccccc1 (single isomer, unassigned) [Example 102]" units_text=% result=13
molecule="CNC(=O)c1[nH]c(C(=O)NC2CCC2)cc1OC(C)c1ccc(Cl)cc1 (single isomer, unassigned) [Example 27]" units_text=% result=47

----------
assay: Beagle dog PK study 2 of Example 101 (HPβCD based formulation, IV), with clinical observations; format: in vivo; details: beagle, dog, plasma, iv, 1 mg/kg, dog PK study 2, IV 1 mg/kg, HPβCD, 0.5 h, mean; read-out: Average plasma concentration, Mean
readout.kind: concentration at 0.5 h

compound="CNC(=O)c1[nH]c(C(=O)NC2CCC2)cc1O[C@@H](C)c1ccccc1 (stereo in doubt)" readout_kind="concentration at 0.5 h" result="507 ng/mL"
